PROCEDURE TEXT: Monkey oral pharmacokinetic (PK) study, aged, obese, and diabetic male monkeys
Type: in vivo
RECORDED CONDITIONS: cynomolgus monkey, plasma, Dose 2, non-naïve aged, obese, and diabetic male Macaca fascicularis monkeys
PROPERTY MEASURED: Tmax (h)

molecule=N#Cc1ccc(COc2cccc(C3=CCN(Cc4nc5ccc(C(=O)O)cc5n4C[C@@H]4CCO4)CC3)n2)c(F)c1 property_measured=Tmax endpoint_unit=h numeric_value=8.8

###

STUDY TARGET: GLP1R (Homo sapiens, UniProt P43220)
Sequence (P43220 24-463): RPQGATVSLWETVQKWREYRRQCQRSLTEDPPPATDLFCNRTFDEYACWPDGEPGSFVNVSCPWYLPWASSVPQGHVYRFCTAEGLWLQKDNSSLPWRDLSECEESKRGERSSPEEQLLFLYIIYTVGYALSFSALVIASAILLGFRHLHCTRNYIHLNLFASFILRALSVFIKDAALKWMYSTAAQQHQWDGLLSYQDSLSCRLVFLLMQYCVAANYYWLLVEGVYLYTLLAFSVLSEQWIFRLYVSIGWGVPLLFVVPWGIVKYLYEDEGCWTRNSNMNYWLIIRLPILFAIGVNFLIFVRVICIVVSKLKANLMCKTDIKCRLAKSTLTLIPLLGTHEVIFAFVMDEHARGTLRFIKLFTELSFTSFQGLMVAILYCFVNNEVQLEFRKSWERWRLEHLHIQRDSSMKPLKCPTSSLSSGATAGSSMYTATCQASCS
PROCEDURE TEXT: GLP1R cAMP assay, CHO cells stably expressing human GLP-1R
Type: cell-based
RECORDED CONDITIONS: CHO cells stably expressing GLP-1R, read-out: CHO cAMP stable EC50
Property: EC50; scope: individual compounds
PROPERTY MEASURED: EC50

molecule=O=C(O)c1ccc2nc(CN3CC=C(c4cccc(OCc5ccc(Cl)cc5F)c4)CC3)n(C[C@@H]3CCO3)c2n1 study_target="GLP1R (Homo sapiens, UniProt P43220)" property_measured=EC50 result="≤ 150 nM"
molecule=N#Cc1ccc(COc2nc(C3=CCN(Cc4nc5ccc(C(=O)O)cc5n4C[C@@H]4CCO4)CC3)ccc2F)c(F)c1 study_target="GLP1R (Homo sapiens, UniProt P43220)" property_measured=EC50 result="≤ 15 nM"
molecule=O=C(O)c1ccc2nc(CN3CC=C(c4cccc(OCc5ccc(Cl)cc5F)n4)CC3)n(C[C@@H]3CCO3)c2c1 study_target="GLP1R (Homo sapiens, UniProt P43220)" property_measured=EC50 result="≤ 15 nM"
molecule=O=C(O)c1ccc2nc(CN3CCC(c4cncc(OCc5ccc(Cl)cc5F)n4)CC3)n(C[C@@H]3CCO3)c2c1 study_target="GLP1R (Homo sapiens, UniProt P43220)" property_measured=EC50 result="≤ 1000 nM"
molecule=N#Cc1ccc(COc2cncc(C3=CCN(Cc4nc5ccc(C(=O)O)cc5n4C[C@@H]4CCO4)CC3)n2)c(F)c1 study_target="GLP1R (Homo sapiens, UniProt P43220)" property_measured=EC50 result="≤ 1000 nM"
molecule=O=C(O)c1ccc2nc(CN3CCC(c4ccnc(OCc5ccc(Cl)cc5F)n4)CC3)n(C[C@@H]3CCO3)c2c1 study_target="GLP1R (Homo sapiens, UniProt P43220)" property_measured=EC50 result="≤ 150 nM"
molecule=O=C(O)c1ccc2nc(CN3CC=C(c4ccnc(OCc5ccc(Cl)cc5F)n4)CC3)n(C[C@@H]3CCO3)c2c1 study_target="GLP1R (Homo sapiens, UniProt P43220)" property_measured=EC50 result="≤ 150 nM"
molecule=O=C(O)c1ccc2nc(CN3CC=C(c4cncc(OCc5ccc(Cl)cc5F)n4)CC3)n(C[C@@H]3CCO3)c2c1 study_target="GLP1R (Homo sapiens, UniProt P43220)" property_measured=EC50 result="≤ 150 nM"
molecule=N#Cc1ccc(COc2cccc(C3=CCN(Cc4nc5ccc(C(=O)O)cc5n4C[C@@H]4CCO4)CC3)n2)c(F)c1 study_target="GLP1R (Homo sapiens, UniProt P43220)" property_measured=EC50 result="≤ 15 nM"
molecule=O=C(O)c1ccc2nc(CN3CC=C(c4ccc(F)c(OCc5ccc(Cl)cc5F)c4)CC3)n(C[C@@H]3CCO3)c2c1 study_target="GLP1R (Homo sapiens, UniProt P43220)" property_measured=EC50 result="≤ 150 nM"
molecule=O=C(O)c1ccc2nc(CN3CC=C(c4cccc(OCc5ccc(Cl)cc5F)c4)CC3)n(C[C@@H]3CCO3)c2c1F study_target="GLP1R (Homo sapiens, UniProt P43220)" property_measured=EC50 result="≤ 150 nM"
molecule=O=C(O)c1ccc2nc(CN3CCC(c4cccc(OCc5ccc(Cl)cc5F)c4)CC3)n(C[C@@H]3CCO3)c2c1 study_target="GLP1R (Homo sapiens, UniProt P43220)" property_measured=EC50 result="≤ 150 nM"
molecule=N#Cc1ccc(COc2cccc(N3CCC(Cc4nc5ccc(C(=O)O)c(F)c5n4C[C@@H]4CCO4)CC3)n2)c(F)c1 study_target="GLP1R (Homo sapiens, UniProt P43220)" property_measured=EC50 result="≤ 150 nM"
